Biological target: T1, recombinant His-tagged full-length ERG (UniProt P11308 1-479, biotinylated with NHS-PEG4 biotin for the OctetRED assays)
T1 construct: mature; Baculovirus expression in SF9 cells, Ni-NTA purified; also called wild-type ERG; wtERG; not shown: His tag
T1 sequence (looked up): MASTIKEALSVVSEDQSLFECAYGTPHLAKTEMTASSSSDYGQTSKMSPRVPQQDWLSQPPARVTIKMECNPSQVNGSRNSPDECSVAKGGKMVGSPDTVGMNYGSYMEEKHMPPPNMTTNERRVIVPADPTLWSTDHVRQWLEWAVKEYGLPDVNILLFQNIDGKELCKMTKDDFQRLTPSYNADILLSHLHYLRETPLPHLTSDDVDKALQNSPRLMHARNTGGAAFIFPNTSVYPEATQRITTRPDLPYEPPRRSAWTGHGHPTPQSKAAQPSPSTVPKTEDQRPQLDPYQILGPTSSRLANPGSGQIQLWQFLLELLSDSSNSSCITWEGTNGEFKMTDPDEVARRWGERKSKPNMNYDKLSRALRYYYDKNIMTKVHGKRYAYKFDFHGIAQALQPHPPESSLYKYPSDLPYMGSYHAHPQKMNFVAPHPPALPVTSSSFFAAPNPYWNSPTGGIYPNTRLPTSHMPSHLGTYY
Experiment: Kd table of synthetic peptides on ERG; assay not given
*1 amine or outer side, *2 acyl side, *3 side chain or, on linkers, in order; H or OH if unused. Primed or numbered codes have the meaning given here. Where no end group is shown, it is not given here. [ ]: non-standard residue; d: D form. Y(Me) = COc1ccc(C[C@H](N[*:1])C(=O)[*:2])cc1; Pip′ = 4-methylpiperazine
measured-quantity: Kd
Write down the value, and be sure its unit follows.

// below: answered binders
1) [Pip′]PPFL-NH2 (also called Pip-PPFL-NH2) [4PL-3F]
3.9 µM
2) [Pip′]PP[Y(Me)]L-NH2 (also called Pip-PPY(Me)L-NH2) [4PL-3Y(Me)]
15.5 µM
3) [Pip′]PPYA-NH2 (also called Pip-PPYA-NH2) [4PL-4A]
7.9 µM

Now let's try a different one.
Challenge: Item under review: [Pip′]PPYD-NH2 (also called Pip-PPYD-NH2) [4PL-4D] . Reported Kd?
Response given: 14.8 µM
